Listed below: pIC50 values for each entry.
System: P. falciparum TM90 C2b
TEST NAME: 72-hour [3H]hypoxanthine incorporation assay, field adapted strain TM90 C2b
Assay type: cell-based
TEST CONTEXT: Plasmodium falciparum, TM90, read-out: IC50, TM90 C2b
pIC50: −log10 of the molar value.
OBSERVED PROPERTY: pIC50

> print(dat)
                                   compound  meas.value
1  C[C@H]1[C@H](OC(=O)CCC(=O)O)O[C@@H]2O[C@@]3(C)CC[C@H]4[C@H](C)CC[C@@H]1[C@@]24OO3 [Artesunate]        8.30
2  CCN(CC)CCCC(C)Nc1ccnc2cc(Cl)ccc12 (centres unmarked)        6.85

* * *

Reported IC50 is given for each of the following compounds.
Test system: P. falciparum Cam3.I
TEST NAME: 72-hour [3H]hypoxanthine incorporation assay, field adapted strain Cam3.I
Type: cell-based
TEST CONTEXT: Plasmodium falciparum, read-out: IC50, Cam3.I
OBSERVED PROPERTY: IC50 (nM)

> print(dat)
                                   compound  observed.property  units  meas.value
1  C[C@H]1[C@H](OC(=O)CCC(=O)O)O[C@@H]2O[C@@]3(C)CC[C@H]4[C@H](C)CC[C@@H]1[C@@]24OO3 [Artesunate]               IC50     nM          11
2  CCN(CC)CCCC(C)Nc1ccnc2cc(Cl)ccc12 (centres unmarked) [Chloroquine]               IC50     nM         180

* * *

TEST NAME: Metabolic stability study using human liver microsomes
Type: in vitro ADME
TEST CONTEXT: pooled human liver microsomes
A collection of molecules and their measured microsomal CLint at 1 µM
OBSERVED PROPERTY: microsomal CLint at 1 µM (µL/min/mg)

> print(dat)
                                    molecule         observed.property      units  limit.qualifier  meas.value
 1  O=C(C1CCN(c2nnnn2C2CCCC2)CC1)N1CCCc2ccccc21 [Compound 28]  microsomal CLint at 1 µM  µL/min/mg                >         400
 2  CC(C)n1nnnc1N1CCC(C(=O)N2CCCc3ccccc32)CC1 [Compound 27]  microsomal CLint at 1 µM  µL/min/mg                =         135
 3  O=C(C1CCN(c2nnnn2-c2ccc(F)cc2)CC1)N1CCOc2ccccc21 [Compound 30]  microsomal CLint at 1 µM  µL/min/mg                =          83
 4  O=C(C1CCN(c2nnnn2-c2ccc(N3CCCC3)cc2)CC1)N1CCCc2c(F)cccc21 [Compound 36]  microsomal CLint at 1 µM  µL/min/mg                >         400
 5  O=C(C1CCN(c2nnnn2C2CCCCC2)CC1)N1CCCc2ccccc21 [Compound 29]  microsomal CLint at 1 µM  µL/min/mg                >         400
 6  COc1ccc(-n2nnnc2N2CCC(C(=O)N3CCCc4c(Cl)cccc43)CC2)cc1 [Compound 31]  microsomal CLint at 1 µM  µL/min/mg                >         400
 7  COc1ccc(-n2nnnc2N2CCC(C(=O)N3CCCc4ccccc43)CC2)cc1 [Compound 7]  microsomal CLint at 1 µM  µL/min/mg                =         521
 8  COc1ccc(-n2nnnc2N2CCC(C(=O)N3CCOc4c(Cl)cccc43)CC2)cc1 [Compound 32]  microsomal CLint at 1 µM  µL/min/mg                =          78
 9  O=C(C1CCN(c2nnnn2-c2ccc(N3CCCC3)cc2)CC1)N1CCCc2c(Cl)cccc21 [Compound 33]  microsomal CLint at 1 µM  µL/min/mg                >         400
10  O=C(C1CCN(c2nnnn2-c2ccc(N3CCCC3)cc2)CC1)N1CCOc2c(Cl)cccc21 [Compound 34]  microsomal CLint at 1 µM  µL/min/mg                =         296
